targetDesc: human ether-à-go-go-related gene (hERG) potassium channel (human, UniProt Q12809);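 also: peak tail current of the secondary pulse compared with the same well before compound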
Sequence (Q12809 whole entry, looked up): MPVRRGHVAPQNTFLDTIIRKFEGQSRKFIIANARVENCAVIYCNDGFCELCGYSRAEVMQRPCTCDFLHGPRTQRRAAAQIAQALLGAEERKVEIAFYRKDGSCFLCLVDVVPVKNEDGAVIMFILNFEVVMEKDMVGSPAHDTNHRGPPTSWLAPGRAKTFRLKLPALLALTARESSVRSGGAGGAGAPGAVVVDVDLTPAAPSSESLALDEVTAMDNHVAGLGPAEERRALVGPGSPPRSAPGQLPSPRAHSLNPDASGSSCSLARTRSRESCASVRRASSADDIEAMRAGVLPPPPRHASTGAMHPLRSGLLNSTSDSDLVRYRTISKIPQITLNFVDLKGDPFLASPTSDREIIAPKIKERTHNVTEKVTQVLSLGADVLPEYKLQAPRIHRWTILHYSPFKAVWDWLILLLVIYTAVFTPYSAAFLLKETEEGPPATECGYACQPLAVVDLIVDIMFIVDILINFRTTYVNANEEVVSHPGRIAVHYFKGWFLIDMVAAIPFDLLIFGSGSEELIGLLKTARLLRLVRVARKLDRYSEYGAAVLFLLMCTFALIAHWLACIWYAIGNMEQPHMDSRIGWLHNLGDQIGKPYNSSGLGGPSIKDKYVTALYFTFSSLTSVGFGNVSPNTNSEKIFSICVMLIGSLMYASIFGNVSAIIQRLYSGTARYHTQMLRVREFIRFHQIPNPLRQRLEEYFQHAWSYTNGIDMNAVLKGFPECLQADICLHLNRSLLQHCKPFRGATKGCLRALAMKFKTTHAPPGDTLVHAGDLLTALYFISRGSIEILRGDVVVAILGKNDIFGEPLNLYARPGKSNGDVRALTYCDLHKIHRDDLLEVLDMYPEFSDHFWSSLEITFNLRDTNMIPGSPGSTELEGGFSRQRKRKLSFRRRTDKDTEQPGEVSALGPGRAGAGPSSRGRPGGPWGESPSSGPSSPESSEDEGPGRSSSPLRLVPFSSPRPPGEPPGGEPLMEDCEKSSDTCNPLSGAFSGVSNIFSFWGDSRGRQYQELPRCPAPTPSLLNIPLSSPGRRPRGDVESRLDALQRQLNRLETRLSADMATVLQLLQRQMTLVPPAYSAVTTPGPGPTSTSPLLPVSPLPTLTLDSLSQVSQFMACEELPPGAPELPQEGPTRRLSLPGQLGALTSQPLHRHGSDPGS
method: primary screen, population patch clamp on CHO cells stably expressing hERG; higher = less effect of the substance
Among all 310,000 compounds or so, about 14,000 (4.5%) showed an effect of 50% or more. The effect is printed as a negative number. The full list was thinned out, with strong results kept by preference.
measurementType: hERG current change (%, negative = inhibition) at 10uM (%)
Hi! Could you send only the number? It should be in %, unit omitted.

hERG current change (%, negative = inhibition) at 10uM recorded for this compound, O=C(C1CCCCC1)N1CCC(c2nc3ccccc3[nH]2)CC1 , is -5.51

Input CC(C)(C)NC(=O)CSC(=Nc1ccc(F)cc1)NC#N . Output hERG current change (%, negative = inhibition) at 10uM: -72.3

compound CC1=C(C(=O)Nc2cc(C(=O)NCCC(C)C)ccc2C)SCCO1 , hERG current change (%, negative = inhibition) at 10uM observed: -52.4

Record Cc1ccc(N2CC(C)Cn3c2nc2c3c(=O)[nH]c(=O)n2C)cc1C (centres unmarked) , field hERG current change (%, negative = inhibition) at 10uM: -10.9

hERG current change (%, negative = inhibition) at 10uM recorded for this compound, CC(C)(C)NC(=O)CSC(=Nc1cccc(F)c1)NC#N , is 8.94

Item: CC[C@@H](CCC=C(C)C)C(=O)N(Cc1ccccc1)c1ccccc1 | hERG current change (%, negative = inhibition) at 10uM: 3.94

Lookup result for O=C(O)/C=C/C(=O)Nc1cccc(C(F)(F)F)c1 ; measured hERG current change (%, negative = inhibition) at 10uM: 7.79

Value of measured hERG current change (%, negative = inhibition) at 10uM for the entry COc1ccc(N2CC(C(=O)N3CCC(c4nc5ccccc5[nH]4)CC3)CC2=O)cc1 (centres unmarked) : -19.3
